# Tested on: Metabotropic glutamate receptor 2 (Homo sapiens, UniProt Q14416)
# Sequence (Q14416 whole entry): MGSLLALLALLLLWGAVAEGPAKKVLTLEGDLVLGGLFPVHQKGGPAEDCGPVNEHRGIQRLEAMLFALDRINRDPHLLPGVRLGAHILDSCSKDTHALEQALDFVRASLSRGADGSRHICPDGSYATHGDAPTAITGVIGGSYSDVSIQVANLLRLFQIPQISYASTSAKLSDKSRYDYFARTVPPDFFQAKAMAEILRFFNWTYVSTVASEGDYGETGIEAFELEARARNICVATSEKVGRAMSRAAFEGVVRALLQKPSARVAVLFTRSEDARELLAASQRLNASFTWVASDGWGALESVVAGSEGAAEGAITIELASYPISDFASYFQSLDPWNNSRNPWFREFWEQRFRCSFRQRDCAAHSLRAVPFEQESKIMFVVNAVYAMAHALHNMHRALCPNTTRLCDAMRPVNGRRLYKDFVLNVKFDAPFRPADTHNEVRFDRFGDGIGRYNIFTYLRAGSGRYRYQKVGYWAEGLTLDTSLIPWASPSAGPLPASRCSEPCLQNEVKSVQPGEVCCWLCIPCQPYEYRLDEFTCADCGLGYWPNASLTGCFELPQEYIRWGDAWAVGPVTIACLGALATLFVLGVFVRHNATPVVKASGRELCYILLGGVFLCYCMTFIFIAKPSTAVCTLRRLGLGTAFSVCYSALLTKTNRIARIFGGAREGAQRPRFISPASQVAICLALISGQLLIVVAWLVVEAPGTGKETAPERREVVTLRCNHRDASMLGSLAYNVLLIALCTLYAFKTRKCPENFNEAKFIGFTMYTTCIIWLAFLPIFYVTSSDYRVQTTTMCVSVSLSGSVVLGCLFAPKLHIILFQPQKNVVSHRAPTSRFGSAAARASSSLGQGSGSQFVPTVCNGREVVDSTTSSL
# Assay name: Positive allosteric modulation activity at mGlu2 receptor
pEC50: −log10 of the molar value.
Measurement label: pEC50

[[record]]
molecule_smiles = "O=C(Nc1ccccn1)[C@]12C[C@H]1/C(=N\\O)c1ccccc1O2"
measurement_label = "pEC50"
value_observed = "< 4.52"


----------
# Tested on: Metabotropic glutamate receptor 8 (Homo sapiens, UniProt O00222)
# Sequence (O00222 whole entry): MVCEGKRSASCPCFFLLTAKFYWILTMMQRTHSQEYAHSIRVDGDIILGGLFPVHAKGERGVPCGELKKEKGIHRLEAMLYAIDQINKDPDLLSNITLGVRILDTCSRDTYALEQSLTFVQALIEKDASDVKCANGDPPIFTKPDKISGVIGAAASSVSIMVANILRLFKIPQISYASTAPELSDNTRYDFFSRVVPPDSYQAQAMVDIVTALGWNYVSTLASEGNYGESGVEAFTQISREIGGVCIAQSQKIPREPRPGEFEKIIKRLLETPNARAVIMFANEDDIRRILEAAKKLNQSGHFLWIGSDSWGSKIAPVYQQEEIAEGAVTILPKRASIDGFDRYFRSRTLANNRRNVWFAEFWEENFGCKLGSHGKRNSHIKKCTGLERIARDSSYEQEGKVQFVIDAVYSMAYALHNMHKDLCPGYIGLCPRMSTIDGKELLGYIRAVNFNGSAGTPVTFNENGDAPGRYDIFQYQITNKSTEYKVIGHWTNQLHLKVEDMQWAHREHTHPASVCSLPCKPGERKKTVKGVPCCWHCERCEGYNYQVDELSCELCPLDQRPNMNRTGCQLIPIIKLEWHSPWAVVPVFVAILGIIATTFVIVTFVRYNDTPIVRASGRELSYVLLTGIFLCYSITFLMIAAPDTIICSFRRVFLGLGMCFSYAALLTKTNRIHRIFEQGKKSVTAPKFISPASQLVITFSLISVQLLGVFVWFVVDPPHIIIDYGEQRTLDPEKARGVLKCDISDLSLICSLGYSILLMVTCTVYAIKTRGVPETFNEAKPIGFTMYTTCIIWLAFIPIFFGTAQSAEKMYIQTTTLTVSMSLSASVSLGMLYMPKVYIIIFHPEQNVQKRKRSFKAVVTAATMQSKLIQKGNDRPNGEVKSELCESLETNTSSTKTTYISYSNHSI
# Assay name: Positive allosteric modulation activity at mGlu8 receptor
Measurement label: EC50

[[record]]
molecule_smiles = "O=C(Nc1ccccn1)[C@]12C[C@H]1/C(=N\\O)c1ccccc1O2"
value_observed = "> 30 µM"

